# METHOD SUMMARY: Solubilities of clonazepam in water-containing solvents
# Assay type: physicochemical
# RECORDED CONDITIONS: di(ethylene glycol) methyl ether, neat solvent, 25 °C, organic solvent or mixture, Di (ethylene glycol) methyl ether 100% solvent, 0% water, 25° C. (neat, from Example 11)
QUANTITY MEASURED: solubility (mg/mL)
# output: bare number, implied unit mg/mL

solubility measured on "O=C1CN=C(c2ccccc2Cl)c2cc([N+](=O)[O-])ccc2N1" = 56.4

* * *

# METHOD SUMMARY: Solubilities of clonazepam in glycol ethers at 3 temperatures
# RECORDED CONDITIONS: di(ethylene glycol) methyl ether, neat solvent, 25 °C, organic solvent or mixture, thermodynamic from solid
QUANTITY MEASURED: solubility (mg/mL)
# output: bare number, implied unit mg/mL

solubility measured on "O=C1CN=C(c2ccccc2Cl)c2cc([N+](=O)[O-])ccc2N1" = 56.4
